Test system: HRV serotype 3
PROCEDURE_TEXT: Antirhinoviral H1-HeLa cell culture assay (XTT), HRV-3
Type: cell-based
TEST_SETTINGS: Human rhinovirus sp., H1-HeLa cells
PROPERTY_LABEL: pEC50
Answer as the number alone; pEC50 is minus log10 of concentration in mol/L.

### Prompt I would be grateful if you could share the reported pEC50 for `CCOC(=O)/C=C/[C@H](C[C@@H]1CCNC1=O)NC(=O)[C@H](Cc1ccc(F)cc1)NC(=O)[C@@H](NC(=O)c1cc(C)on1)C(C)C` .
### Response 7.30

* * *

Recorded measurements of CC50, one per entry
PROCEDURE_TEXT: Cytotoxicity in uninfected H1-HeLa cells (anticoxsackieviral assay, XTT)
Type: cell-based
TEST_SETTINGS: human; 50% cytotoxic dose, uninfected H1-HeLa cells (Table 4)

Reference set, count: 3
CCOC(=O)/C=C/[C@H](C[C@@H]1CCNC1=O)NC(=O)[C@H](Cc1ccc(F)cc1)NC(=O)[C@@H](NC(=O)c1cc(C)on1)C(C)C = > 10 µM
CCOC(=O)c1ccc(OCCC2CCN(c3ccc(C)nn3)CC2)cc1 [Pirodavir, reference compound] = > 100 µM
Cc1cc(CCCOc2c(C)cc(-c3noc(C(F)(F)F)n3)cc2C)on1 [Pleconaril, reference compound] = > 10 µM

Please turn your attention to the following entry.
### Prompt I would be grateful if you could share the reported CC50 for `CCOC(=O)/C=C/[C@H](C[C@@H]1CCNC1=O)NC(=O)[C@@H](CC(=O)[C@@H](NC(=O)c1cc(C)on1)C(C)C)Cc1ccc(F)cc1` .
### Response > 100 µM

* * *

Recorded measurements of melting point, one per entry

Reference set, count: 4
CCOC(=O)/C=C/[C@H](CCC(N)=O)NC(=O)[C@H](Cc1ccccc1)NC(=O)[C@H](CC(C)C)NC(=O)c1cc(C)on1 = 223 to 225 °C
CCOC(=O)/C=C/[C@H](CN1CCNC1=O)NC(=O)[C@H](Cc1ccccc1)NC(=O)[C@H](CC(C)C)NC(=O)OCc1ccccc1 = 161 to 164 °C
CCOC(=O)/C=C/[C@H](CCC(N)=O)NC(=O)[C@@H](CC(=O)[C@@H](NC(=O)c1cc(C)on1)C(C)C)Cc1ccc(F)cc1 = 220 °C (dec.)
CCOC(=O)/C=C/[C@H](C[C@@H]1CCNC1=O)NC(=O)[C@H](Cc1ccc(F)cc1)NC(=O)[C@@H](NC(=O)c1cc(C)on1)C(C)C = 219 to 220 °C

Please turn your attention to the following entry.
### Prompt I would be grateful if you could share the reported melting point for `CCOC(=O)/C=C/[C@H](CCC(N)=O)NC(=O)[C@H](Cc1ccccc1)NC(=O)[C@H](CC(C)C)NC(=O)OCc1ccccc1` .
### Response 219 to 221 °C

* * *

Test system: H1-HeLa cells
PROCEDURE_TEXT: Cytotoxicity in mock-infected H1-HeLa cells (antirhinoviral assay, XTT)
Assay type: cell-based
TEST_SETTINGS: 50% cytotoxic dose
PROPERTY_LABEL: CC50

Reference set, count: 2
Cc1cc(CCCCCCCOc2ccc(C3=N[C@@H](C)CO3)cc2)on1 [WIN 52084, reference compound] = > 10 µM
Cc1cc(CCCCCOc2c(Cl)cc(C3=NCCO3)cc2Cl)on1 [WIN 54954, reference compound] = > 63 µM

### Prompt Checklist item: CC50 tested on H1-HeLa cells, entry Cc1cc(CCCCCCCOc2ccc(C3=NCCO3)cc2)on1 [WIN 51711, reference compound] , value?
### Response > 60 µM

Origin of values: patent US6906198B1
